Listed here are binders together with their documented Ki.
# tested-on: T1, human cationic trypsin (TRY1) WT (human, UniProt P07477 24-247)
# T1 construct: human cationic trypsin (TRY1); cloned as amino acids 16-247 (signal peptide removed); His6-tag and propeptide removed after enterokinase digestion; not shown: His6, N-terminal, cleaved
# assay-overview: enzyme inhibition assay (Morrison tight-binding fit); 100 pM TRY1, 1 mM L-BAPA, SPINK1 15.625-2000 pM; 20 mM Hepes pH 7.4, 150 mM NaCl, 2 mM CaCl2, 0.05% Tween20; 37 °C; initial rates after a 5 h lag phase; Morrison's quadratic equation
# test-parameters: both partners purified

binder | Ki
serine protease inhibitor Kazal-type 1 (SPINK1) WT (natural protein, human, UniProt P00995 24-79, looked up, N-terminal truncation removes the signal peptide; pET47b construct with His6-tag and HRV3C cleavage site; source: SHuffle T7 Express E. coli, purified (HisTrap HP, HRV3C digestion, His6-tag removed on the same HisTrap column); not shown: His6, N-terminal, cleaved) DSLGREAKCYNELNGCTKIYDPVCGTDGNTYPNECVLCFENRKRQTSILIQKSGPC | < 0.05 nM

Shift focus to the following entry.
Value lookup for Ki; key = serine protease inhibitor Kazal-type 1 (SPINK1) p.N34S (natural protein, human, UniProt P00995 24-79, looked up, made by site directed mutagenesis; pET47b construct with His6-tag and HRV3C cleavage site; also called SPINK1 N34S; p.N34S mutant; source: SHuffle T7 Express E. coli, purified (HisTrap HP, HRV3C digestion, His6-tag removed on the same HisTrap column); not shown: His6, N-terminal, cleaved) DSLGREAKCYSELNGCTKIYDPVCGTDGNTYPNECVLCFENRKRQTSILIQKSGPC
< 0.05 nM
